- Target or test system: T1, NtcA SS120 (Prochlorococcus sp. SS120, UniProt Q7VDU1 1-244)
- T1 sequence: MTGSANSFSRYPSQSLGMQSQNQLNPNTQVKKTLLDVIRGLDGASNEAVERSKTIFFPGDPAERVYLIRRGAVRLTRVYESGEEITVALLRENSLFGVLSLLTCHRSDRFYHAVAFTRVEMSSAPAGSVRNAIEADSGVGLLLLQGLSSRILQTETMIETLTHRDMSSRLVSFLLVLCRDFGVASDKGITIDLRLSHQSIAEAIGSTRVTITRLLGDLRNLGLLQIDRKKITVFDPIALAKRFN
- Test details: ITC; saturating 2OG (Kd,eff = Kd/alpha, extrapolated from fit); ITC: 50 mM Hepes, 350 mM NaCl, pH 7.5, 25 C, 0-10 mM 2OG; SPR: Biacore X, CM5 with neutravidin, 25 C, buffer not given; EMSA: as Napolitano et al. 2012, 1 uM NtcA
- Condition notes: protein: recombinant; tags: His6 (pET-15b); chain copies: 2; blunt

{"columns": ["Binder", "Kd, nM"],
 "data": [
  ["DNA3, glnA promoter SS120 wt (dsDNA) DNA 1: CCAATAGTCACAAAAAGTACTTATTG DNA 2: CAATAAGTACTTTTTGTGACTATTGG", 800]
]}
